- Measured on: furin, P09958
- Sequence (P09958 whole entry): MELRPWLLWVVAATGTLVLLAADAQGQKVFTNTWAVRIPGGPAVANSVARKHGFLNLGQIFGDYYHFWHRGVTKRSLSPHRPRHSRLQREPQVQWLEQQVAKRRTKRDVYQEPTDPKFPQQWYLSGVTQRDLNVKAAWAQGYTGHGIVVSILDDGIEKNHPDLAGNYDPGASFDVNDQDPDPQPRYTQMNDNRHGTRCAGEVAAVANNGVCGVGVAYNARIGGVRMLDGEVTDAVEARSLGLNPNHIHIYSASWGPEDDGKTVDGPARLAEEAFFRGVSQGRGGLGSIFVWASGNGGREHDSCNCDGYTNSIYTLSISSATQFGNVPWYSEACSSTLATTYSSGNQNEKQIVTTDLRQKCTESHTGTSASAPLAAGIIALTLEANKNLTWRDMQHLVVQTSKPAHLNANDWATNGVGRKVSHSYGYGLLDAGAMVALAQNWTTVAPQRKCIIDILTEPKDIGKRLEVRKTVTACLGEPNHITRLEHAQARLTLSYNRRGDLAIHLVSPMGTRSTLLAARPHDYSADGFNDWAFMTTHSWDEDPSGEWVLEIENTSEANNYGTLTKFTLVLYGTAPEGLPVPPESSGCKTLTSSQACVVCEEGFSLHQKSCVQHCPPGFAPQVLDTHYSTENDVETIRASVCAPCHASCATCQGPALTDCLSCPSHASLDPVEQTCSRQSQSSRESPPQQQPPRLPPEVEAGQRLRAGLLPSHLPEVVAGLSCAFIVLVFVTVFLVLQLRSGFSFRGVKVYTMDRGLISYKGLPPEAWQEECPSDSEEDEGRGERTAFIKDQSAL
- Experiment summary: furin cleavage Z-score vs untreated control; higher = more cleavage, active = 3.5 or more, inactive = 1 or less, 8 variable residues between constant flanks;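 note: purified furin at 1:10 enzyme:substrate in 50 mM HEPES pH 7.5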
- Experimental conditions: 7.5 min
The list shows a part of the results. No count for the full screen is at hand.
Respond only with the outcome that fits, drawn from 1 = active, -1 = inactive

**Query** What call does the record list for CARKRRANSLAGNASASA [FS-3194] ?
**Result** 1

**Query** Also, CARPRRILNTAGNASASA [FS-2441] please.
**Result** -1
